Provide the reported drug sensitivity score of each item.
Tested on: MDCK p60AmotL2-inducible + doxycycline (p60AmotL2 expressing)
Test: drug sensitivity score (DSS) from 5-dose viability curve (DSS (area-based score, 0 = no response)); higher = more sensitive (stronger viability inhibition); extreme values may be limits of the assay
Conditions: doxycycline: 10 ng/mL; 72 h
In your answer, state the number alone without any accompanying words.

Can you look up drug sensitivity score on MDCK p60AmotL2-inducible + doxycycline (p60AmotL2 expressing) for Cc1cc(Nc2nc(N[C@@H](C)c3ncc(F)cn3)ncc2Cl)[nH]n1 ?
0.2

Let us now turn to CCN(CC)CCCC(C)Nc1c2ccc(Cl)cc2nc2ccc(OC)cc12 (stereo not drawn)
15.2

Let us now turn to COc1cccc2c1C(=O)c1c(O)c3c(c(O)c1C2=O)C[C@@](O)(C(=O)CO)C[C@@H]3O[C@H]1C[C@H](N)[C@@H](O)[C@H](C)O1 [Epirubicin]
11.6

Let us now turn to CCCS(=O)(=O)Nc1ccc(F)c(C(=O)c2c[nH]c3ncc(-c4ccc(Cl)cc4)cc23)c1F
0

Let us now turn to COc1ccc2[nH]cc(/C=C3\C(=O)Nc4ccc(NC(=O)CCN5CCCCC5)cc43)c2c1
9.4

Let us now turn to CNC(=O)c1nn(C)c2c1C(C)(C)Cc1cnc(Nc3ccc(N4CCN(C)CC4)cc3)nc1-2
13.2

Let us now turn to Cc1cc2c(F)c(Oc3ncnn4cc(OC[C@@H](C)O)c(C)c34)ccc2[nH]1
0

Let us now turn to CNS(=O)(=O)Nc1nccc(Cc2c(C)c3ccc(Oc4ncccn4)cc3oc2=O)c1F
2.3

* * *

Tested on: MDCK p60AmotL2-inducible + doxycycline (p60AmotL2 expressing)
Test: drug sensitivity score (DSS) from 5-dose viability curve (DSS (area-based score, 0 = no response)); higher = more sensitive (stronger viability inhibition); extreme values may be limits of the assay
Conditions: doxycycline: 10 ng/mL; 72 h
value_type: drug sensitivity score
In your answer, state the number alone without any accompanying words.

Can you look up drug sensitivity score on MDCK p60AmotL2-inducible + doxycycline (p60AmotL2 expressing) for C[C@@H]1CN(CC(=O)Nc2ccc3c(c2)Cc2cccc(-c4cc(=O)cc(N5CCOCC5)o4)c2S3)C[C@H](C)O1 ?
2.4

Let us now turn to COc1cc(C)c(/C=C/C(C)=C/C=C/C(C)=C/C(=O)O)c(C)c1C
0

Let us now turn to CN1CCC(CNc2ccc3ncc(-c4cccc(OC(F)(F)F)c4)n3n2)CC1
7.5

Let us now turn to NCC(=O)Nc1ccc(-n2nc(C(F)(F)F)cc2-c2ccc3c(ccc4ccccc43)c2)cc1
0

* * *

Provide the reported drug sensitivity score of each item.
System: MDCK p60AmotL2-inducible + doxycycline (p60AmotL2 expressing)
Experiment: drug sensitivity score (DSS) from 5-dose viability curve (DSS (area-based score, 0 = no response)); higher = more sensitive (stronger viability inhibition); extreme values may be limits of the assay
Conditions: doxycycline: 10 ng/mL; 72 h
In your answer, state the number alone without any accompanying words.

Can you look up drug sensitivity score on MDCK p60AmotL2-inducible + doxycycline (p60AmotL2 expressing) for N#Cc1ccc2[nH]c(O)c(-c3ccc(CN4CCOCC4)cn3)c2c1 ?
0

Let us now turn to CC(=O)c1cnc2ccc(-c3cc(Cl)c(O)c(Cl)c3)nc2c1N[C@H]1CC[C@H](CN(C)C)CC1
18.8

Let us now turn to Cc1cccc(-c2[nH]c(CNc3ccccc3F)nc2-c2ccc3ncnn3c2)n1
4.3

Let us now turn to CC(=O)OC[C@H]1O[C@@H]([S-])[C@H](OC(C)=O)[C@@H](OC(C)=O)[C@@H]1OC(C)=O.CCP(CC)CC.[Au+]
4.7

# credit: the supplement of paper PMC11003180
